Experiment: Oral bioavailability in rat at 10 mg/kg, po administered as a solution in 1:1 imwitor:tween
Format: ADME, organism-based
Conditions: in vivo
OBSERVABLE: bioavailability (%)
The figure you give is taken to be in %; do not add the unit.

Some solved entries appear below for comparison.
O=C(N[C@@H]1CC[C@@H](c2cccc(F)c2F)Cn2c(CC(F)(F)F)nnc21)N1CCC2(CC1)C(=O)Nc1ncccc12    6
COC(C)(C)c1cnc2n1C[C@H](c1cccc(F)c1F)CC[C@H]2NC(=O)N1CCC2(CC1)C(=O)Nc1ncccc12    5

**Query** Fill in: bioavailability of COCc1cnc2n1C[C@H](c1cccc(F)c1F)CC[C@H]2NC(=O)N1CCC2(CC1)C(=O)Nc1ncccc12 is ___
**Result** 21

* * *

Assay: Oral bioavailability in dog at 10 mg/kg, po
Type: ADME, organism-based, Canis lupus familiaris
Settings: in vivo
# reported bioavailability; entries follow
The figure you give is taken to be in %; do not add the unit.

O=C1Nc2ncccc2C2(CCN(C(=O)N[C@@H]3CC[C@@H](c4cccc(F)c4F)Cn4c(CC(F)(F)F)cnc43)CC2)O1    28

Now for the compound whose bioavailability we want.
**Query** Fill in: bioavailability of COC(C)(C)c1cnc2n1C[C@H](c1cccc(F)c1F)CC[C@H]2NC(=O)N1CCC2(CC1)OC(=O)Nc1ncccc12 is ___
**Result** 10

* * *

Molecular target: Calcitonin gene-related peptide type 1 receptor (Homo sapiens, UniProt O60894+Q16602)
Sequence (Q16602 whole entry, one chain of several): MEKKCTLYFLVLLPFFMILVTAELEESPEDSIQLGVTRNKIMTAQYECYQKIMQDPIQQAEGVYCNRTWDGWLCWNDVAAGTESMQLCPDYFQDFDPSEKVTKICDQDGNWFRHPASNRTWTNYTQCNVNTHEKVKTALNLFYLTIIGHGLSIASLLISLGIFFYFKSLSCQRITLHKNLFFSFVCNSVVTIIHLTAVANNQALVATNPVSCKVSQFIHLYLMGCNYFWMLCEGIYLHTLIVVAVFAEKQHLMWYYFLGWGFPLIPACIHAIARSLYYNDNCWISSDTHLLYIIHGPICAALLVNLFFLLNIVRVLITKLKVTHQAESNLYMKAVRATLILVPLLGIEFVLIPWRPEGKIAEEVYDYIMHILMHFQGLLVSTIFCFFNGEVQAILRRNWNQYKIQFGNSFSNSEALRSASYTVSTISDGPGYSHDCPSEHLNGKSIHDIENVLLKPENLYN
Assay: Displacement of [125I]-CGRP from human recombinant CGRP receptor
Decide using Ki alone. Strictly below 0.5 nM: Condition met. Equal to or above 0.5 nM: Condition not met.

Cc1cn2c(n1)[C@H](NC(=O)N1CCC(n3c(=O)[nH]c4ncccc43)CC1)CC[C@@H](c1cccc(F)c1F)C2    Condition not met
O=C(N[C@@H]1CC[C@@H](c2cccc(F)c2F)Cn2c(-c3nccs3)cnc21)N1CCC(n2c(=O)[nH]c3ncccc32)CC1    Condition not met
O=C(N[C@@H]1CC[C@@H](c2cccc(F)c2F)Cn2c(CC(F)(F)F)nnc21)N1CCC2(CC1)C(=O)Nc1ncccc12    Condition met
CC1(c2cnc3n2C[C@H](c2cccc(F)c2F)CC[C@H]3NC(=O)N2CCC3(CC2)OC(=O)Nc2ncccc23)CCCO1 (some centres not stated)    Condition met

**Query** Is the reported Ki for O=C(N[C@@H]1CC[C@@H](c2cccc(F)c2F)Cn2c(CO)cnc21)N1CCC(n2c(=O)[nH]c3ncccc32)CC1 strictly below 0.5 nM?
**Result** Condition not met

**Query** Is the reported Ki for O=C(N[C@@H]1CC[C@@H](c2cccc(F)c2F)Cn2c(CC(F)(F)F)cnc21)N1CCC(n2c(=O)[nH]c3ncccc32)CC1 strictly below 0.5 nM?
**Result** Condition met

**Query** Is the reported Ki for Cc1cnc2n1C[C@H](c1cccc(F)c1F)CC[C@H]2NC(=O)N1CCC(n2c(=O)[nH]c3ncccc32)CC1 strictly below 0.5 nM?
**Result** Condition not met

* * *

# reported log10(Ki); entries follow
Target: Calcitonin gene-related peptide type 1 receptor (Homo sapiens, UniProt O60894+Q16602)
Test: Displacement of [125I]-CGRP from human recombinant CGRP receptor
The base-10 logarithm of Ki, taken with Ki in nM, is what appears here.

O=C(N[C@@H]1CC[C@@H](c2cccc(F)c2F)Cn2ccnc21)N1CCC(n2c(=O)[nH]c3ncccc32)CC1    0.49
CN(C)C(=O)c1cnc2n1C[C@H](c1cccc(F)c1F)CC[C@H]2NC(=O)N1CCC(n2c(=O)[nH]c3ncccc32)CC1    0.45
O=C(N[C@@H]1CC[C@@H](c2cccc(F)c2F)Cn2cc(CO)nc21)N1CCC(n2c(=O)[nH]c3ncccc32)CC1    0.51
O=C(N[C@@H]1CC[C@@H](c2cccc(F)c2F)Cn2c(C3CC3)nnc21)N1CCC(n2c(=O)[nH]c3ncccc32)CC1    0.00

**Query** Fill in: log10(Ki) of CCC(CC)(OC)c1cnc2n1C[C@H](c1cccc(F)c1F)CC[C@H]2NC(=O)N1CCC2(CC1)OC(=O)Nc1ncccc12 is ___
**Result** -1.41

**Query** Fill in: log10(Ki) of O=C1Nc2ncccc2C2(CCN(C(=O)N[C@@H]3CC[C@@H](c4cccc(F)c4F)Cn4c(CC(F)(F)F)nnc43)CC2)O1 is ___
**Result** -0.72

**Query** Fill in: log10(Ki) of COCc1cnc2n1C[C@H](c1cccc(F)c1F)CC[C@H]2NC(=O)N1CCC2(CC1)C(=O)Nc1ncccc12 is ___
**Result** -0.21
